Quick reference: CC50 at 5 days of the listed items.
- protocol-summary: Cytotoxicity Determination (CCK-8, without addition of virus)
- Format: cell-based
- assay-setup: human, 50% cytotoxicity concentration (CC50)

Study these solved cases before continuing.
>>> print(df.to_string())
                                   compound     obs_value
0  COc1cc(C(=O)NCC(O)(c2cc(C(C)(C)NC(C)=O)cc(-c3ccc(F)c(Cl)c3)n2)C(F)(F)F)ccc1OCC(N)=O (stereo not drawn)      > 100 µM
1  COc1cc(C(=O)NCC(O)(c2ccc(OC)c(-c3ccc(F)c(Cl)c3)n2)C(F)(F)F)ccc1OC[C@@H](C)O (stereo partly drawn)  10 to 100 µM

Now consider a different compound.
Task: Which CC50 at 5 days reading was recorded for the compound COc1cc(C(=O)NCC(O)(c2cc3c(c(-c4ccc(F)c(C(F)(F)F)c4)n2)OCC3(C)N)C(F)(F)F)ccc1CO[C@@H](C)O (stereo partly drawn) ?
Output: 10 to 100 µM
